// data source = patent US20100129369A1

Listing of entries alongside the reported % inhibition of HGF stimulated phospho-Met (ELISA, HCT116 cells), Ab 2 µg/mL.
target: human c-Met (human, UniProt P08581 25-1390); experiment: cell-based or functional assay
Sequence (P08581 25-1390): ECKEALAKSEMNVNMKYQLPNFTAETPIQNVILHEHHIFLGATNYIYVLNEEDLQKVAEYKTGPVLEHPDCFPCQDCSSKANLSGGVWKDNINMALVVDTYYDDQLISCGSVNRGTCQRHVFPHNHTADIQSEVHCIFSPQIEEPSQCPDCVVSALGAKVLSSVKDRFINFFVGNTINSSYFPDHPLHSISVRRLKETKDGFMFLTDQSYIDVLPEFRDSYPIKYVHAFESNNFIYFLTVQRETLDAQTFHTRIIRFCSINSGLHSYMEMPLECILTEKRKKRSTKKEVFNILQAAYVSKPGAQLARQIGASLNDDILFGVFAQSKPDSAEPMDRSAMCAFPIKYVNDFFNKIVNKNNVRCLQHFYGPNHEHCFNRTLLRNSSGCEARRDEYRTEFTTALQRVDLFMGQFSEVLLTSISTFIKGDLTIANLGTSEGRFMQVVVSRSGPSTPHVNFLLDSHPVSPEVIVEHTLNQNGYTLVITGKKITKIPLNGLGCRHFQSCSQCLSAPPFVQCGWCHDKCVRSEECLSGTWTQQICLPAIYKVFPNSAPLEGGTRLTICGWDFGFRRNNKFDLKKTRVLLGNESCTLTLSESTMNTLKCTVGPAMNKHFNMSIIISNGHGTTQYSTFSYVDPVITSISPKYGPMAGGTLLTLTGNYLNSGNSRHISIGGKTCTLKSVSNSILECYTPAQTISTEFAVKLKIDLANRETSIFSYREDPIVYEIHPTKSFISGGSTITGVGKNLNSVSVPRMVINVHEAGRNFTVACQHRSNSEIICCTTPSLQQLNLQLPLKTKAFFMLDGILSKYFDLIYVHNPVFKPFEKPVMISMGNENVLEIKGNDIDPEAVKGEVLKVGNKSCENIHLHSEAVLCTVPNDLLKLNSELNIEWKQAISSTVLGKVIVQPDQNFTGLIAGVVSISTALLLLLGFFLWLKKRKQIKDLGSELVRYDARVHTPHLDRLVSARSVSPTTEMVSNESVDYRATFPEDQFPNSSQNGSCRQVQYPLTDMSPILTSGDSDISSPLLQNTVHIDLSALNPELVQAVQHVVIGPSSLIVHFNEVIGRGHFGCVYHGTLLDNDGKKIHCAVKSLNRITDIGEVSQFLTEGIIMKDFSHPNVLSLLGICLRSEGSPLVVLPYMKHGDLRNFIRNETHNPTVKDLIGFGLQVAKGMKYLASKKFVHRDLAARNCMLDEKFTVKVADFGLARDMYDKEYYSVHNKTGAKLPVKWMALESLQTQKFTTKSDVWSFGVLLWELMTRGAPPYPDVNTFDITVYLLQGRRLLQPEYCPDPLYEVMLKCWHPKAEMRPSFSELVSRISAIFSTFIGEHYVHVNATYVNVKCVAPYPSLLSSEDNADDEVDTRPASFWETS
The reply should contain only the number, in %.

{"columns": ["binder", "recordedNumber"],
 "data": [
  ["C8-co-16 (antibody, human IgG2, kappa, V domains shown, Named IgG4 kappa; also called C8-co-16 IgG4) VH: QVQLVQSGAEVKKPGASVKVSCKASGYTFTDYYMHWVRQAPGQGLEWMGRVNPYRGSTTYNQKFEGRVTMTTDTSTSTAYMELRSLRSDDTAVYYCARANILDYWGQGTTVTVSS VL: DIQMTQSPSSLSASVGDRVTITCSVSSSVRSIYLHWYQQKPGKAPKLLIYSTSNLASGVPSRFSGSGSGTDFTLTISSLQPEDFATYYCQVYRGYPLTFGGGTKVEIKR", 59]
]}

Asked: # return recorded % inhibition of HGF stimulated phospho-Met (ELISA, HCT116 cells), Ab 2 µg/mL for input D11-8B8 (antibody, human IgG2, kappa, V domains shown, Human engineered IgG2 kappa c-Met antibody; also called Mab D11-8B8; D11-8B8 IgG2) VH: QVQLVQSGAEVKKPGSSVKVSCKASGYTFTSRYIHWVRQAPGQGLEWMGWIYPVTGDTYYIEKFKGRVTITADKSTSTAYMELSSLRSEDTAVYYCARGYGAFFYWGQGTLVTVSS VL: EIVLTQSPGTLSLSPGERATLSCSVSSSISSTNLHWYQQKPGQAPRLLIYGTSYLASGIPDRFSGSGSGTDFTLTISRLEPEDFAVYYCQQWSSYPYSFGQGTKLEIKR
Given back: 40.7

Asked: Identify measured % inhibition of HGF stimulated phospho-Met (ELISA, HCT116 cells), Ab 2 µg/mL associated with C8-6 (antibody, human IgG2, kappa, V domains shown, Named IgG4 kappa; also called C8-6 IgG4) VH: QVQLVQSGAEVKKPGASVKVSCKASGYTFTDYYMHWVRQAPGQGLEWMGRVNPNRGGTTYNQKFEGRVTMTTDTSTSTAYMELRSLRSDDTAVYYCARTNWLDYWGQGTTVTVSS VL: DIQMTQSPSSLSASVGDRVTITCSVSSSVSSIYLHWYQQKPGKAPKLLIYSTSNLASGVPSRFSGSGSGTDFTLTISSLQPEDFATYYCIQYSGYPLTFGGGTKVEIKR
Given back: 27.9

Asked: Find the measured % inhibition of HGF stimulated phospho-Met (ELISA, HCT116 cells), Ab 2 µg/mL of D11-S17Y (antibody, human IgG2, kappa, V domains shown, Human engineered IgG2 kappa c-Met antibody; also called D11-S17Y IgG2) VH: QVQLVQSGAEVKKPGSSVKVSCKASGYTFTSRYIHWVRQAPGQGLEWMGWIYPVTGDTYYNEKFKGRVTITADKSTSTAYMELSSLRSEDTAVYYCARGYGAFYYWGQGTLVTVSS VL: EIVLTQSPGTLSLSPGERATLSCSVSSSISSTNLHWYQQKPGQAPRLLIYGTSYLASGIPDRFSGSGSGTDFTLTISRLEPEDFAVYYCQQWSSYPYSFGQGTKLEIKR and report it.
Given back: 31.4
